- study-target: RAC-beta serine/threonine-protein kinase (Homo sapiens)
- stated-conditions: at 1 µM
- Description: GSK_PKIS: AKT2 mean inhibition at 1 uM [Nanosyn]
Each item that follows carries a reported inhibition.
Kindly answer with a numeric value in %, unit omitted.

Here is how some molecules turned out for inhibition.
# entry-smiles, inhibition, %
data = [
    ("CN(c1ccc(NC(=O)Nc2ccc(OC(F)(F)F)cc2)cc1)c1ccnc(Nc2cccc(S(N)(=O)=O)c2)n1", 1.22),
    ("CN(C)C(=O)O[C@@H]1CN[C@@H](C#Cc2cc3ncnc(Nc4ccc(OCc5cccc(F)c5)c(Cl)c4)c3s2)C1", -1.02),
    ("Cc1ccc2c(-c3ccnc(Nc4ccc5c(c4)OCCO5)n3)c(-c3ccc(C(F)(F)F)cc3)nn2n1", 1.65),
    ("Cc1ccc(Nc2ccnc(Nc3cccc(C(N)=O)c3)n2)cc1O", -2.15),
    ("COC(=O)c1cncc(/C=C/c2c(C)cc(O)cc2C)c1", 1.16),
]

So what's the measured inhibition for this one? `Cc1ccc(O)cc1Nc1ccnc2ccc(S(C)(=O)=O)cc12`
1.9

So what's the measured inhibition for this one? `C[C@@H](Oc1cc(-n2cnc3ccc(OC[C@@H](O)CO)cc32)sc1C(N)=O)c1ccccc1Cl`
-0.32

So what's the measured inhibition for this one? `COC(=O)c1ccc2c(c1)C(=Cc1cc(Br)c(O)c(Br)c1)C(=O)N2`
1.05

So what's the measured inhibition for this one? `COc1cc(Nc2nccc(-c3cnn4ncccc34)n2)cc(OC)c1`
0.1

So what's the measured inhibition for this one? `CCn1c(-c2nonc2N)nc2ccc(F)cc21`
2.93

So what's the measured inhibition for this one? `NS(=O)(=O)c1ccc(Nc2cc(-c3cccc(O)c3)n[nH]2)cc1`
3.28

So what's the measured inhibition for this one? `Cc1ccc(C(=O)NC2CC2)cc1-c1ccc2[nH]ncc2c1`
-3.23

###

Each item that follows carries a reported inhibition.
- study-target: Serine/threonine-protein kinase DCLK2 (Homo sapiens);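 note: each value is a mean percent inhibition of DCLK2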
- stated-conditions: at 1 µM
Kindly answer with a numeric value in %, unit omitted.

Here is how some molecules turned out for inhibition.
# entry-smiles, study-target, inhibition / %
rows = [
    ("COc1cccc(-n2ncc3c(N/N=C/c4ccc(C)cc4)ncnc32)c1", "Serine/threonine-protein kinase DCLK2 (Homo sapiens)", 2.82),
    ("CN(C)c1cc2c(Nc3ccc4c(cnn4Cc4ccccc4)c3)ncnc2cn1", "Serine/threonine-protein kinase DCLK2 (Homo sapiens)", -0.18),
    ("COC(=O)c1ccc2c(c1)C(=Cc1cc(Br)c(O)c(Br)c1)C(=O)N2", "Serine/threonine-protein kinase DCLK2 (Homo sapiens)", 0.79),
]

So what's the measured inhibition for this one? `NS(=O)(=O)c1ccc(NC=C2C(=O)Nc3ccc4ncsc4c32)cc1`
7.25

So what's the measured inhibition for this one? `COc1cc2ncn(-c3cc(OCc4ccccc4S(C)(=O)=O)c(C#N)s3)c2cc1OC`
0.47

###

- study-target: Fibroblast growth factor receptor 4 (Homo sapiens);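 note: reported figure is the averaged percent inhibition of FGFR4, from the GSK PKIS kinase screening panel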
- stated-conditions: at 1 µM
Each item that follows carries a reported inhibition.
Number plus unit, in that order.

# entry-smiles, value-observed
measured = [
    ("Nc1nccc(-c2c(-c3ccc(F)cc3)ncn2CCCN2CCOCC2)n1", "-1.03%"),
    ("ON=C1CCc2cc(-c3nc(C4CCNCC4)[nH]c3-c3ccncc3)ccc21", "1.91%"),
    ("OCc1ccc(-c2nc(-c3ccccn3)c(-c3ccc4c(c3)OCO4)[nH]2)cc1", "4.36%"),
    ("Oc1cccc(-c2nc(-c3ccccc3)[nH]c2-c2ccncc2)c1", "1.85%"),
]

So what's the measured inhibition for this one? `CN(c1ccc(NC(=O)Nc2ccc(OC(F)(F)F)cc2)cc1)c1ccnc(Nc2cccc(S(N)(=O)=O)c2)n1`
2.57%

###

- study-target: Serine/threonine-protein kinase MARK2 (Homo sapiens) (UniProt Q7KZI7);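 note: mean percent inhibition of PAR-1Balpha kinase activity, reported from the GSK PKIS screen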
- Sequence (Q7KZI7 whole entry): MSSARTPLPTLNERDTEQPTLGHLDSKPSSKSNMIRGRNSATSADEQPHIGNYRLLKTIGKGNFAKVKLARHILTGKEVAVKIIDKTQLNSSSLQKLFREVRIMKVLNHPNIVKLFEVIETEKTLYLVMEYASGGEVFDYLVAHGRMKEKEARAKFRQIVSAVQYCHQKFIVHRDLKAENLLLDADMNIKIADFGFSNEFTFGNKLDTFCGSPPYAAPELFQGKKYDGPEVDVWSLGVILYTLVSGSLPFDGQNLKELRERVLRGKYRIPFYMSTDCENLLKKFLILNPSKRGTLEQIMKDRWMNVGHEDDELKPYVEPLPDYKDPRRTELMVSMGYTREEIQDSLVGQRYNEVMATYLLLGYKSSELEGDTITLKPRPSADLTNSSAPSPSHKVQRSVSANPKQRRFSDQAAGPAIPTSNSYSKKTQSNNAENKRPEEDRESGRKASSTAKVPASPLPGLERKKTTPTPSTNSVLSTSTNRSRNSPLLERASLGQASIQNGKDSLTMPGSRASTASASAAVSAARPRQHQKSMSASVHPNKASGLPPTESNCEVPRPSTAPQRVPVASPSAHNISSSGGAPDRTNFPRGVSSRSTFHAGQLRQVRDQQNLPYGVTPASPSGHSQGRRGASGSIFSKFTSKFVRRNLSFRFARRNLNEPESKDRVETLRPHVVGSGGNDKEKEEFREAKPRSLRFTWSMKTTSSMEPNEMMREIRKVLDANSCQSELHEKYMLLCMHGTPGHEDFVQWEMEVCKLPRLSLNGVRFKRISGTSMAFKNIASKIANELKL
- stated-conditions: at 0.1 µM
Each item that follows carries a reported inhibition.
Kindly answer with a numeric value in %, unit omitted.

Here is how some compounds turned out for inhibition.
# entry-smiles, study-target, inhibition [%]
data = [
    ("Cc1ccc(Nc2ccnc(Nc3cccc(C(N)=O)c3)n2)cc1O", "Serine/threonine-protein kinase MARK2 (Homo sapiens) (UniProt Q7KZI7)", 0.4),
    ("CC(C)c1ccc(Nc2nccc(-c3cnn4ncccc34)n2)cc1", "Serine/threonine-protein kinase MARK2 (Homo sapiens) (UniProt Q7KZI7)", -1.19),
    ("COc1cc2ncn(-c3cc(OCc4ccccc4S(C)(=O)=O)c(C#N)s3)c2cc1OC", "Serine/threonine-protein kinase MARK2 (Homo sapiens) (UniProt Q7KZI7)", 25.9),
]

Now, please, on to the next compound.
So what's the measured inhibition for this one? `[O-][S+]1CCN(Cc2ccc(-c3ccc4ncnc(Nc5ccc(OCc6ccccc6)c(Cl)c5)c4c3)o2)CC1`
0.59

###

- study-target: Phosphatidylinositol 4,5-bisphosphate 3-kinase catalytic subunit delta isoform (Homo sapiens) (UniProt O00329);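 note: reported values are mean percent inhibition of PI3K-delta activity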
- Sequence (O00329 whole entry, canonical isoform): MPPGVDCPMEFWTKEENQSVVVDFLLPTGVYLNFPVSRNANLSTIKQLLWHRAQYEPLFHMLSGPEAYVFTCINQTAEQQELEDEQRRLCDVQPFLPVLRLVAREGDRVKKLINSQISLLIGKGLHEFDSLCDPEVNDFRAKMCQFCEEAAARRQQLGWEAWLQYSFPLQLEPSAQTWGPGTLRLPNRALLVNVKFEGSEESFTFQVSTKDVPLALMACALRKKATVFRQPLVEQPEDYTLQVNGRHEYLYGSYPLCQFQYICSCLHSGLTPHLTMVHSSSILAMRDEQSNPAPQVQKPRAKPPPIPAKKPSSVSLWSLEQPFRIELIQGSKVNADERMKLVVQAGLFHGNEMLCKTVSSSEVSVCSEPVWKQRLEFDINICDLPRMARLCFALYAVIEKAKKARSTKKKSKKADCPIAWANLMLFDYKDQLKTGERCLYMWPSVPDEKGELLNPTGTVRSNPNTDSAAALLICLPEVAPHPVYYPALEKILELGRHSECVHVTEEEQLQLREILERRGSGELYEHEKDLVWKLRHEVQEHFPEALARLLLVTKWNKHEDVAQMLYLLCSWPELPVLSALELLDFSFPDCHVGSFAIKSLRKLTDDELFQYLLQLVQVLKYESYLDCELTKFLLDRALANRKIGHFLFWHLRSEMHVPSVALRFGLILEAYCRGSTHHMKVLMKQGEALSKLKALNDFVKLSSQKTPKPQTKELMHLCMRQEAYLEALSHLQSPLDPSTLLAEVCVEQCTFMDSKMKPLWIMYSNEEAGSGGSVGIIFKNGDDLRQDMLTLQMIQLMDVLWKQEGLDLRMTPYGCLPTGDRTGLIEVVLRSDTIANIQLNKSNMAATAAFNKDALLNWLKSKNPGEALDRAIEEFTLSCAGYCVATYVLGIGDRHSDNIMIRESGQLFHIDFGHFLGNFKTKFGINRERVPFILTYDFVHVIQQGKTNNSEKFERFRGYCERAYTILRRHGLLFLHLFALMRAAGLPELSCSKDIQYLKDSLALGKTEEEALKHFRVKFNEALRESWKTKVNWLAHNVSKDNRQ
- stated-conditions: at 1 µM
Each item that follows carries a reported inhibition.
Kindly answer with a numeric value in %, unit omitted.

Here is how some compounds turned out for inhibition.
# entry-smiles, inhibition (%)
records = [
    ("Cc1cc(-c2ccccn2)cc(C)c1/C=C/c1cncc(-c2nn[nH]n2)c1", -0.48),
    ("O=C(Nc1ccc(Oc2ccc3[nH]c(NC(=O)c4ccco4)nc3c2)cc1)Nc1cc(C(F)(F)F)ccc1F", 2.96),
    ("NS(=O)(=O)c1ccc(NC=C2C(=O)Nc3ccc4ncsc4c32)cc1", 27.3),
    ("COc1cc(/C=N/Nc2ncnc3c2cnn3C(C)C)ccc1O", 71.3),
    ("COc1cccc(-n2nc(C)c3c(N/N=C(\\C)c4ccncc4)ncnc32)c1", 6.02),
    ("O=S(=O)(CCOCc1ccc(-c2ccc3ncnc(Nc4ccc(OCc5cccc(F)c5)c(Cl)c4)c3c2)o1)c1ccccc1", 10.1),
    ("[O-][S+]1CCN(Cc2ccc(-c3ccc4ncnc(Nc5ccc(OCc6ccccc6)c(Cl)c5)c4c3)o2)CC1", 2.1),
    ("Nc1nccc(-c2c(-c3ccc(F)cc3)nn3cc(C(F)(F)F)ccc23)n1", 0.3),
]

So what's the measured inhibition for this one? `Cc1nc(-c2ccccc2)n2nc(NCCCN3CCOCC3)ncc12`
0.85

###

- study-target: Calcium/calmodulin-dependent protein kinase type II subunit alpha (Homo sapiens) (UniProt Q9UQM7);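 note: reported values are averages (mean inhibition of CAMK2A)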
- Sequence (Q9UQM7 whole entry): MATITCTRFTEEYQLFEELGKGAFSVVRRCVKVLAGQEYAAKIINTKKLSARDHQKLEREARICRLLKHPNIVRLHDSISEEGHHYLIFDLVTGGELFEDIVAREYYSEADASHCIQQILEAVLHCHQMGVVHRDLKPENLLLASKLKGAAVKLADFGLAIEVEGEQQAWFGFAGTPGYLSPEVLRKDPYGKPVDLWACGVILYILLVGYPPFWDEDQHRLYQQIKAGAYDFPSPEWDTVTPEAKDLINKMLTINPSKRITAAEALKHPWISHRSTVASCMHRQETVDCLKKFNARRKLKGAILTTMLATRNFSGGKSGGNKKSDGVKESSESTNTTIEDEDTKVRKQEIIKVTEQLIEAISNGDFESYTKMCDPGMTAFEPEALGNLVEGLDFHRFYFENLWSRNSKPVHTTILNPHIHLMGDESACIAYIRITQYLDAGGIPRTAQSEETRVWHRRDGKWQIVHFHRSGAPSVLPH
- stated-conditions: at 0.1 µM
Each item that follows carries a reported inhibition.
Kindly answer with a numeric value in %, unit omitted.

Here is how some compounds turned out for inhibition.
# entry-smiles, inhibition, %
data = [
    ("Cc1cc(O)cc(C)c1/C=C/c1cncc(C(=O)N(C)C)c1", 3.26),
    ("COc1cccc(-n2ncc3c(N/N=C/c4ccc(S(C)(=O)=O)cc4)ncnc32)c1", -0.15),
    ("Nc1nccc(C#Cc2cncnc2Nc2ccc(OCc3cccc(F)c3)c(Cl)c2)n1", 3.24),
    ("C[C@@H](Oc1cc(-n2cnc3ccc(OC[C@@H](O)CO)cc32)sc1C(N)=O)c1ccccc1Cl", -2.71),
    ("COc1cc2ncnc(Nc3ccc(C)c(O)c3)c2cc1OC", 2.98),
    ("Cc1ccc(O)cc1Nc1ccnc2ccc(S(C)(=O)=O)cc12", 2.94),
    ("NS(=O)(=O)c1cccc(Nc2cc(-c3ccc(F)cc3)n[nH]2)c1", 2.68),
    ("Cc1ccc(C(=O)NC2CC2)cc1-c1ccc2[nH]ncc2c1", -4.3),
]

Now, please, on to the next compound.
So what's the measured inhibition for this one? `ON=C1CCc2cc(-c3nc(C4CCNCC4)[nH]c3-c3ccncc3)ccc21`
1.63

###

- study-target: Serine/threonine-protein kinase Sgk3 (Homo sapiens);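 note: each value is a mean of replicate inhibition readings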
- stated-conditions: at 1 µM
Each item that follows carries a reported inhibition.
Kindly answer with a numeric value in %, unit omitted.

Here is how some compounds turned out for inhibition.
# entry-smiles, unit-abbreviation, inhibition
data = [
    ("CN(C)c1cc2c(Nc3ccc4c(cnn4Cc4ccccc4)c3)ncnc2cn1", "%", 1.33),
    ("C[C@@H](Oc1cc(-n2cnc3ccc(OC[C@@H](O)CO)cc32)sc1C(N)=O)c1ccccc1Cl", "%", 0.55),
    ("c1ccc(Cc2nc3ccc(Nc4ncnc5ccccc45)cc3[nH]2)cc1", "%", 3.66),
    ("N#Cc1c(NC(=O)c2ccccc2F)sc2c1CCCC2", "%", -2.69),
    ("O=C(Nc1ccc(Oc2ccc3[nH]c(NC(=O)c4ccco4)nc3c2)cc1)Nc1cc(C(F)(F)F)ccc1F", "%", -0.97),
    ("O=C1Nc2ccccc2/C1=C/Nc1ccc2[nH]c(=O)[nH]c2c1", "%", 9.07),
]

So what's the measured inhibition for this one? `Cc1nc(-c2ccccc2)n2nc(NCCCN3CCOCC3)ncc12`
1.99

So what's the measured inhibition for this one? `C[C@@H](Oc1cc(-n2cnc3ccc(OCC4CCN(C)CC4)cc32)sc1C(N)=O)c1ccccc1C(F)(F)F`
-2.55
